Measured Human Primary Hepatocyte Editing % 500 by item
tested on: PCSK9 gene; test: PCSK9 gRNA/SpCas9 editing in primary human hepatocytes (Tables 2, 4); assay type: cell-based; conditions: 500 ng/RNA/mL; SpCas9 mRNA MS002 1:1 by weight
m = 2'-O-methyl; r = 2'-OH (RNA)

- molecule: "GA201: PCSK9 gRNA; protospacer CAGCATACAGAGTGACCACC (SEQ ID NO: 195) (nucleic acid, sugars from the 5' end m3 r94 m3, linkages s3 o93 s3 (s phosphorothioate, o phosphodiester), T or U not given here) guide: CAGCAUACAGAGUGACCACCGUUUUAGAGCUAGAAAUAGCAAGUUAAAAUAAGGCUAGUCCGUUAUCAACUUGAAAAAGUGGCACCGAGUCGGUGCUUUU"
  result.units: "%"
  Human Primary Hepatocyte Editing % 500: 12.92
- molecule: "GA246: PCSK9 gRNA; protospacer GCCAGCGCCTGGCGAGGGCT (SEQ ID NO: 239) (nucleic acid, sugars from the 5' end m3 r94 m3, linkages s3 o93 s3 (s phosphorothioate, o phosphodiester), T or U not given here) guide: GCCAGCGCCUGGCGAGGGCUGUUUUAGAGCUAGAAAUAGCAAGUUAAAAUAAGGCUAGUCCGUUAUCAACUUGAAAAAGUGGCACCGAGUCGGUGCUUUU"
  result.units: "%"
  Human Primary Hepatocyte Editing % 500: 2.17
- molecule: "GA241: PCSK9 gRNA; protospacer TGCTGCTGCCCCTGGCGGGT (SEQ ID NO: 234) (nucleic acid, sugars from the 5' end m3 r94 m3, linkages s3 o93 s3 (s phosphorothioate, o phosphodiester), T or U not given here) guide: UGCUGCUGCCCCUGGCGGGUGUUUUAGAGCUAGAAAUAGCAAGUUAAAAUAAGGCUAGUCCGUUAUCAACUUGAAAAAGUGGCACCGAGUCGGUGCUUUU"
  result.units: "%"
  Human Primary Hepatocyte Editing % 500: 1.49

Ref: patent US20250152746A1
